Test system: AncSZ
Experiment: phosphorylation enrichment, bacterial display (enrichment ratio); higher = better substrate or ligand; peptides without Tyr show the background;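 further: 11-residue human phosphosite peptides and single-mutation variants displayed on the E. coli surface, counted by deep sequencing, each peptide's frequency after selection divided by its frequency in the unselected input library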;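 further: frequency after pTyr selection over input frequency; kinase dosed for 20-30% of maximal phosphorylation in three min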
phosphorylation enrichment values, listed per item
result_type: phosphorylation enrichment

construct_sequence="GRLPEYNTRIA [CCDC151_Y542]" recorded_value=0.512
construct_sequence="TNFCLYLRSLE [MTM1_Y71_R69C_YF]" recorded_value=1.62
construct_sequence="LQTYRYHGLSM [PDHA1_Y289_H292L]" recorded_value=0.927
construct_sequence="KVMANYMYKAG [MAML2_Y513]" recorded_value=0.617

* * *

Test system: c-Abl (mouse)
Assay: phosphorylation enrichment, bacterial display (enrichment ratio); higher = better substrate or ligand; peptides without Tyr show the background
Binary call on phosphorylation enrichment: Condition met from 1 upward, Condition not met beneath that.

construct_sequence="SLNAVYPKAGS [OAS3_Y376_R378K]" label_value="Condition not met"
construct_sequence="DRLASYLDKVP [KRT14_Y129_R134P]" label_value="Condition not met"
construct_sequence="RGYRVCYTPDS [PTPRF_Y450_Y450C]" label_value="Condition met"
construct_sequence="KPVDTYYDSTR [DYNC2H1_Y2230_M2227V]" label_value="Condition not met"
construct_sequence="FLQTDDTSQVS [FRMPD1_Y846_Y846D]" label_value="Condition met"
